// provenance: patent US20240051937A1

# target-system: GSPT1 (Homo sapiens, UniProt P15170+Q96SW2)
# Sequence (P15170 whole entry): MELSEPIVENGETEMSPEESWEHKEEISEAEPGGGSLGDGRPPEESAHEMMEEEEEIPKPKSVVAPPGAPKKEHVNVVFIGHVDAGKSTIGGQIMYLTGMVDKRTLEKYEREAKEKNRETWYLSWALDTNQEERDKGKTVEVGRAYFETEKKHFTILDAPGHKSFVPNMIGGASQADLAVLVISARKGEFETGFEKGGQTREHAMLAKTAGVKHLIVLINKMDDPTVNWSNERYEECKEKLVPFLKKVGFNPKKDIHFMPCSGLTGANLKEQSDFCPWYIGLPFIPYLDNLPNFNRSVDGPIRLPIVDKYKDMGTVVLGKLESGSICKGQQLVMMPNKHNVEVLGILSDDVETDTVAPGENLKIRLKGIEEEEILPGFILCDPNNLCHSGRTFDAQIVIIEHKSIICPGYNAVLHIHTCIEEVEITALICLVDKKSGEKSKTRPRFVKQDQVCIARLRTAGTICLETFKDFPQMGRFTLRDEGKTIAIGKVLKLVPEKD
# Sequence (Q96SW2 whole entry): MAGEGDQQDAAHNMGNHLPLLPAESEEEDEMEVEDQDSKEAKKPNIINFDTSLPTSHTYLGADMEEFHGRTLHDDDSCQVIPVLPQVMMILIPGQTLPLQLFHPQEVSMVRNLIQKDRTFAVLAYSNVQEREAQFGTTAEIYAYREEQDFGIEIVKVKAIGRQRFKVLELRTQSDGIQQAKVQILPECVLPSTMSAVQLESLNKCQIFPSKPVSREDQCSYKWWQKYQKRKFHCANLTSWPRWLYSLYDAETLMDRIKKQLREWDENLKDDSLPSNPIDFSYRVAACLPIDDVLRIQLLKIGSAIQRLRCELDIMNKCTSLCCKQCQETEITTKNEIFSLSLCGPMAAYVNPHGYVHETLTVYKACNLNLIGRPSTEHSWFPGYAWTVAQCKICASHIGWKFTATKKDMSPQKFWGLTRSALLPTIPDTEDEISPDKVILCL
# Sequence (Q16531 whole entry partner): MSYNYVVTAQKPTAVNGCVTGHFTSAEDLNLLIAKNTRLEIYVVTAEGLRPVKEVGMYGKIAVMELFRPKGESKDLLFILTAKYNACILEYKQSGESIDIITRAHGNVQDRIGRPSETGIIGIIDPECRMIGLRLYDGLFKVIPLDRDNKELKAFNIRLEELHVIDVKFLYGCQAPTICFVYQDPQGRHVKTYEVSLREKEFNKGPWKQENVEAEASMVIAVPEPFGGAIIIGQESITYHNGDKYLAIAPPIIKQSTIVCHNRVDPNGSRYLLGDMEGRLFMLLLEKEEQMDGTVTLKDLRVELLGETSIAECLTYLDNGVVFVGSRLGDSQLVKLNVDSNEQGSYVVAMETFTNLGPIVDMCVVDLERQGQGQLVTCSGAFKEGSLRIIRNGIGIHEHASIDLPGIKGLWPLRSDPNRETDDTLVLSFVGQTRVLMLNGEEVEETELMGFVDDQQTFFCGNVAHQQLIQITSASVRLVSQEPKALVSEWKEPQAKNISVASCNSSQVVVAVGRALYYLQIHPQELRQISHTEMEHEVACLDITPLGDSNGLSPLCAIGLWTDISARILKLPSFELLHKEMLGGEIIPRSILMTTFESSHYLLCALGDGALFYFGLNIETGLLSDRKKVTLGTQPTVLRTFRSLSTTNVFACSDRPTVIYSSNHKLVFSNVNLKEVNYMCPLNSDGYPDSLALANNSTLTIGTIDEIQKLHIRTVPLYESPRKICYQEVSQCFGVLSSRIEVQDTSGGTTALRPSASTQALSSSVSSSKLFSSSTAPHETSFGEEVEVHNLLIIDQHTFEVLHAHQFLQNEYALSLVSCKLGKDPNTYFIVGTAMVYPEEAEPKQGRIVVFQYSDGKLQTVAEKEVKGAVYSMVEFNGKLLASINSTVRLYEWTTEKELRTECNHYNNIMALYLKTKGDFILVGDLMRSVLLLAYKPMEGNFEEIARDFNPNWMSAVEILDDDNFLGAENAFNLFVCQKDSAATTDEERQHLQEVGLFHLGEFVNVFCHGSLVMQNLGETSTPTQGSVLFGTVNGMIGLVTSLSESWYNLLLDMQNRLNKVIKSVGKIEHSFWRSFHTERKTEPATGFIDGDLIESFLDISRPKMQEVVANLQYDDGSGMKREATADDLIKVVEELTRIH
# assay-name: Immunofluorescence assay for GSPT1 degradation in CAL-Si cells
# Type: cell-based
# Design: CAL-Si cells were purchased from DSMZ (cat. Number ACC302); host or cells: CAL-Si (CAL-51) cells
# experimental-conditions: 6 hours treatment, read-out: Code: activity for GSPT1 degradation (DC50)
metric-name: DC50

Before answering, review these 5 worked examples.
molecule: Cc1cc(C)cc(NC(=O)CCc2ccc3c(c2)C(=O)N(C2CCC(=O)NC2=O)C3)c1 (stereo not drawn) [Compound 7]
DC50: ≤ 30 nM

molecule: Cc1ncc(NC(=O)CCc2ccc3c(c2)C(=O)N(C2CCC(=O)NC2=O)C3)cc1OC(F)(F)F (stereo not drawn) [Compound 64]
DC50: 30 to 300 nM

molecule: CCc1cc(NC(=O)CCc2ccc3c(c2)C(=O)N(C2CCC(=O)NC2=O)C3)cc(Cl)c1C (stereo not drawn) [Compound 43]
DC50: ≤ 30 nM

molecule: Cc1c(Cl)cc(NC(=O)CCc2ccc3c(c2)C(=O)N(C2CCC(=O)NC2=O)C3)cc1CN1CC2CC1CO2 (stereo not drawn) [Compound 22]
DC50: 30 to 300 nM

molecule: COc1cc(NC(=O)CCc2ccc3c(c2)C(=O)N(C2CCC(=O)NC2=O)C3)cnc1C (stereo not drawn) [Compound 36]
DC50: > 300 nM

Look up DC50 for this molecule: CN1CCC(Oc2cc(Cl)cc(NC(=O)CCc3ccc4c(c3)C(=O)N(C3CCC(=O)NC3=O)C4)c2)C1 (stereo not drawn) [Compound 31]
30 to 300 nM

Look up DC50 for this molecule: CCc1cc(NC(=O)CCc2ccc3c(c2)C(=O)N(C2CCC(=O)NC2=O)C3)ccn1 (stereo not drawn) [Compound 54]
> 300 nM

Look up DC50 for this molecule: Cc1c(Cl)cc(NC(=O)CCc2ccc3c(c2)C(=O)N(C2CCC(=O)NC2=O)C3)cc1OC1CCN(C)C1 (stereo not drawn) [Compound 50]
30 to 300 nM

Look up DC50 for this molecule: Cc1ncc(NC(=O)CCc2ccc3c(c2)C(=O)N(C2CCC(=O)NC2=O)C3)cc1Cl (stereo not drawn) [Compound 3]
30 to 300 nM

Look up DC50 for this molecule: Cc1ccc(NC(=O)COc2ccc3c(c2)C(=O)N(C2CCC(=O)NC2=O)C3)cc1Cl (stereo not drawn) [Compound 69]
> 300 nM

Look up DC50 for this molecule: O=C1CCC(N2Cc3ccc(CCC(=O)Nc4cnc5c(c4)COCC5)cc3C2=O)C(=O)N1 (stereo not drawn) [Compound 48]
> 300 nM

Look up DC50 for this molecule: O=C1CCC(N2Cc3ccc(CCC(=O)Nc4cc(Cl)cc(OC(F)(F)F)c4)cc3C2=O)C(=O)N1 (stereo not drawn) [Compound 11]
≤ 30 nM

Look up DC50 for this molecule: CC(F)(F)c1ccc(NC(=O)CCc2ccc3c(c2)C(=O)N(C2CCC(=O)NC2=O)C3)cc1 (stereo not drawn) [Compound 63]
30 to 300 nM

Look up DC50 for this molecule: Cc1c(CN2CCOCC2)cc(NC(=O)CCc2ccc3c(c2)C(=O)N(C2CCC(=O)NC2=O)C3)cc1OC(F)(F)F (stereo not drawn) [Compound 53]
≤ 30 nM

Look up DC50 for this molecule: Cc1c(CN2CCOCC2)cc(NC(=O)CCc2ccc3c(c2)C(=O)N(C2CCC(=O)NC2=O)C3)cc1OC(F)F (stereo not drawn) [Compound 35]
≤ 30 nM

---

# target-system: GSPT1 (Homo sapiens, UniProt P15170+Q96SW2)
# assay-name: Immunofluorescence assay for GSPT1 degradation in CAL-Si cells
# Format: cell-based
# Set-up: CAL-Si cells were purchased from DSMZ (cat. Number ACC302); host or cells: CAL-Si (CAL-51) cells
# experimental-conditions: GSPT1 degradation, 6 hours treatment, read-out: DC50
// classify: if (DC50 < 20 nM) 1 else -1

// known answers, use as guide
molecule: O=C1CCC(N2Cc3ccc(CCC(=O)Nc4cc(Cl)cc(OC(F)(F)F)c4)cc3C2=O)C(=O)N1 (stereo not shown)
category: 1
//
molecule: Cc1ccc(NC(=O)CCc2ccc3c(c2)C(=O)N(C2CCC(=O)NC2=O)C3)cc1OC(F)F (stereo not shown)
category: 1
//
molecule: O=C1CCC(N2Cc3ccc(CCC(=O)Nc4ccc(-c5ccccn5)cc4)cc3C2=O)C(=O)N1 (stereo not shown)
category: -1
//
molecule: Cc1c(CN2CCOCC2)cc(NC(=O)CCc2ccc3c(c2)C(=O)N(C2CCC(=O)NC2=O)C3)cc1OC(F)F (stereo not shown)
category: 1

Strictly below 20 nM in DC50? O=C1CCC(N2Cc3ccc(CCC(=O)Nc4ccc(-c5ccccc5)nc4)cc3C2=O)C(=O)N1 (stereo not shown)
1

Strictly below 20 nM in DC50? Cc1c(CN2CCOCC2)cc(NC(=O)CCc2ccc3c(c2)C(=O)N(C2CCC(=O)NC2=O)C3)cc1OC(F)(F)F (stereo not shown)
-1

Strictly below 20 nM in DC50? Cc1cc(C)cc(NC(=O)CCc2ccc3c(c2)C(=O)N(C2CCC(=O)NC2=O)C3)c1 (stereo not shown)
-1

---

Recorded DC50 values for a group of molecules are listed next.
# target-system: GSPT1 (Homo sapiens, UniProt P15170+Q96SW2)
# assay-name: Immunofluorescence assay for GSPT1 degradation in CAL-Si cells
# Format: cell-based
# Design: CAL-Si cells were purchased from DSMZ (cat. Number ACC302); host or cells: CAL-Si (CAL-51) cells
# experimental-conditions: 6 hours treatment, read-out: Code: activity for GSPT1 degradation (DC50)
# Method: The representative compounds were tested in an immunofluorescence assay for their activity to bind to degrade GSPT1. […] Primary antibody (human GSPT1, Sigma HPA052488) was diluted in blocking buffer (dil.1/300, 35 μl/well) and incubated with the cells overnight at 4° C. […] Fluorescence intensity of Alexa-Fluor 488 (GSPT1), Alexa-Fluor 647 (Actin) and DAPI (Nucleus) were measured. […] The Alexa-Fluor 488 (GSPT1) signal intensity in each cell was finally measured, in order to obtain a Mean intensity per cell. […]

Look up DC50 for this molecule: O=C1CCC(N2Cc3ccc(CCC(=O)Nc4ccc(-c5ccccn5)cc4)cc3C2=O)C(=O)N1 (stereo not shown)
≤ 30 nM

Look up DC50 for this molecule: O=C(CCc1ccc2c(c1)C(=O)N(C1CCC(=O)NC1=O)C2)NCC1CC1 (stereo not shown)
> 300 nM

Look up DC50 for this molecule: O=C1CCC(N2Cc3ccc(CCC(=O)Nc4cccc(OC(F)(F)F)c4)cc3C2=O)C(=O)N1 (stereo not shown)
30 to 300 nM

Look up DC50 for this molecule: O=C1CCC(N2Cc3ccc(CCC(=O)N4CCCCC4)cc3C2=O)C(=O)N1 (stereo not shown)
> 300 nM

---

Recorded pIC50 values for a group of compounds are listed next.
# target-system: Full length wild-type cereblon CRBN (Homo sapiens, UniProt Q96SW2)
# Construct: Full length wild-type cereblon CRBN (80.0 nM, 10 μL) was incubated in assay buffer
# assay-name: Fluorescence polarization (FP) assay indicating cereblon binding
# experimental-conditions: cereblon binding, CRBN 80.0 nM, probe 5 nM, FP read after 12 hours; read-out: rFP IC50
pIC50: −log10 of the molar value.

Before answering, review these 5 worked examples.
compound: O=C1CCC(N2Cc3ccc(CCC(=O)Nc4ccc(-c5ccccc5)nc4)cc3C2=O)C(=O)N1 (stereo not shown)
pIC50: ≥ 6.30

compound: Cc1c(Cl)cc(NC(=O)CCc2ccc3c(c2)C(=O)N(C2CCC(=O)NC2=O)C3)cc1OCCN1CCOCC1 (stereo not shown)
pIC50: ≥ 6.30

compound: O=C1CCC(N2Cc3ccc(CCC(=O)N4CCC(Oc5ccccc5)C4)cc3C2=O)C(=O)N1 (stereo not shown)
pIC50: < 5.77

compound: Cc1c(F)cc(NC(=O)CCc2ccc3c(c2)C(=O)N(C2CCC(=O)NC2=O)C3)cc1CN1CCOCC1 (stereo not shown)
pIC50: 5.77 to 5.96

compound: CC(C)CCNC(=O)CCc1ccc2c(c1)C(=O)N(C1CCC(=O)NC1=O)C2 (stereo not shown)
pIC50: < 5.77

Look up pIC50 for this compound: COc1cc(Cl)ccc1NC(=O)CCc1ccc2c(c1)C(=O)N(C1CCC(=O)NC1=O)C2 (stereo not shown)
≥ 6.30

Look up pIC50 for this compound: O=C1CCC(N2Cc3ccc(CCC(=O)Nc4ccc(F)c(OC(F)(F)F)c4)cc3C2=O)C(=O)N1 (stereo not shown)
< 5.77

Look up pIC50 for this compound: O=C1CCC(N2Cc3ccc(CCC(=O)NC4CCCC4)cc3C2=O)C(=O)N1 (stereo not shown)
5.96 to 6.30

Look up pIC50 for this compound: O=C1CCC(N2Cc3ccc(CCC(=O)Nc4cc(F)cc(OC(F)(F)F)c4)cc3C2=O)C(=O)N1 (stereo not shown)
< 5.77

Look up pIC50 for this compound: Cc1c(Cl)cc(NC(=O)CCc2ccc3c(c2)C(=O)N(C2CCC(=O)NC2=O)C3)cc1OC1CCNC1 (stereo not shown)
≥ 6.30

Look up pIC50 for this compound: Cc1ccc(NC(=O)COc2ccc3c(c2)C(=O)N(C2CCC(=O)NC2=O)C3)cc1Cl (stereo not shown)
5.96 to 6.30

Look up pIC50 for this compound: COc1cc(NC(=O)CCc2ccc3c(c2)C(=O)N(C2CCC(=O)NC2=O)C3)ccc1C (stereo not shown)
5.96 to 6.30

Look up pIC50 for this compound: O=C1CCC(N2Cc3ccc(CCC(=O)Nc4cnc5c(c4)CCC5)cc3C2=O)C(=O)N1 (stereo not shown)
5.77 to 5.96

Look up pIC50 for this compound: CC1(c2ccc(NC(=O)CCc3ccc4c(c3)C(=O)N(C3CCC(=O)NC3=O)C4)cc2)CC1 (stereo not shown)
5.77 to 5.96

Look up pIC50 for this compound: Cc1c(Cl)cc(NC(=O)CCc2ccc3c(c2)C(=O)N(C2CCC(=O)NC2=O)C3)cc1CN1CCOCC1 (stereo not shown)
≥ 6.30

Look up pIC50 for this compound: CCc1ncc(NC(=O)CCc2ccc3c(c2)C(=O)N(C2CCC(=O)NC2=O)C3)cc1C (stereo not shown)
5.96 to 6.30

Look up pIC50 for this compound: CC(C)(C)c1ccc(NC(=O)CCc2ccc3c(c2)C(=O)N(C2CCC(=O)NC2=O)C3)cn1 (stereo not shown)
5.77 to 5.96

Look up pIC50 for this compound: O=C1CCC(N2Cc3ccc(CCC(=O)NC4CCCCC4)cc3C2=O)C(=O)N1 (stereo not shown)
5.96 to 6.30

Look up pIC50 for this compound: CCOc1cc(NC(=O)CCc2ccc3c(c2)C(=O)N(C2CCC(=O)NC2=O)C3)ccc1C (stereo not shown)
5.96 to 6.30

Look up pIC50 for this compound: CCc1cc(NC(=O)CCc2ccc3c(c2)C(=O)N(C2CCC(=O)NC2=O)C3)cnc1C (stereo not shown)
5.96 to 6.30

Look up pIC50 for this compound: Cc1c(Cl)cc(NC(=O)CNc2ccc3c(c2)C(=O)N(C2CCC(=O)NC2=O)C3)cc1CN1CCOCC1 (stereo not shown)
≥ 6.30

Look up pIC50 for this compound: CCc1cc(NC(=O)CCc2ccc3c(c2)C(=O)N(C2CCC(=O)NC2=O)C3)cc(Cl)c1C (stereo not shown)
5.77 to 5.96

Look up pIC50 for this compound: O=C1CCC(N2Cc3ccc(CCC(=O)N4CCN(c5ccccc5)CC4)cc3C2=O)C(=O)N1 (stereo not shown)
< 5.77

Look up pIC50 for this compound: COc1cc(NC(=O)CCc2ccc3c(c2)C(=O)N(C2CCC(=O)NC2=O)C3)cnc1C (stereo not shown)
5.77 to 5.96

Look up pIC50 for this compound: O=C(CCc1ccc2c(c1)C(=O)N(C1CCC(=O)NC1=O)C2)NCC1CC1 (stereo not shown)
5.96 to 6.30

Look up pIC50 for this compound: Cc1c(Cl)cc(NC(=O)CCc2ccc3c(c2)C(=O)N(C2CCC(=O)NC2=O)C3)cc1OCC1CCN(C)C1 (stereo not shown)
≥ 6.30

Look up pIC50 for this compound: CCc1cc(NC(=O)CCc2ccc3c(c2)C(=O)N(C2CCC(=O)NC2=O)C3)cc(C)n1 (stereo not shown)
≥ 6.30
